Data provenance is patent US20080221116A1.

Target: α1a-AR (Homo sapiens, UniProt P35348)
Construct: expressed in transfected cells; host or cells: COS-7 cells (African Green monkey kidney), membranes
Sequence (P35348 whole entry): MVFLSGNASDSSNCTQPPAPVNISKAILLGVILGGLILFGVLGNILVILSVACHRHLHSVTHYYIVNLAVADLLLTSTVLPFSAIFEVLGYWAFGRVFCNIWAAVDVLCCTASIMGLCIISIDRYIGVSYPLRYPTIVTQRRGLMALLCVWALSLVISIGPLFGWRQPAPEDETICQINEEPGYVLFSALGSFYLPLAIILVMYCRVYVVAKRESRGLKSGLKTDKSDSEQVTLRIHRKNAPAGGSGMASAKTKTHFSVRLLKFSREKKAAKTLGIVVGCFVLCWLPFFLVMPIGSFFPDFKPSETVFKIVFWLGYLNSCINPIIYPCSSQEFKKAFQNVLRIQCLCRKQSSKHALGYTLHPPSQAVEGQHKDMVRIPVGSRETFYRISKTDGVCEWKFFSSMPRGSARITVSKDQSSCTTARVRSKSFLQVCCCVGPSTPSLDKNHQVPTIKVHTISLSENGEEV
Assay: α1-Adrenergic Receptor Binding Assay, 125I-HEAT radio-ligand binding, transfected COS-7 cell membranes, α1a subtype
Details: average value, COS-7 membranes, read-out: Alpha 1 Ki α1a (1) Average Value
pKi: −log10 of the molar value.
Response key: MET means pKi >= 8; NOT MET means pKi < 8.

{"MOLECULE": "CC(C)Oc1ccccc1N1CCN(CC2CC(C(=O)N3CCOCC3)=NO2)CC1 (centres unmarked) [Compound 28]", "SYSTEM_UNDER_TEST": "α1a-AR (Homo sapiens, UniProt P35348)", "ASSIGNED_CATEGORY": "MET"}
{"MOLECULE": "CC(C)Oc1ccccc1N1CCN(CC2CC(C(=O)N3CCC(Oc4ccccn4)CC3)=NO2)CC1 (centres unmarked)", "SYSTEM_UNDER_TEST": "α1a-AR (Homo sapiens, UniProt P35348)", "ASSIGNED_CATEGORY": "NOT MET"}
{"MOLECULE": "CC(C)Oc1ccccc1N1CCN(CC2CC(C(=O)N3CCC(c4ccccc4)(c4ccccc4)CC3)=NO2)CC1 (centres unmarked)", "SYSTEM_UNDER_TEST": "α1a-AR (Homo sapiens, UniProt P35348)", "ASSIGNED_CATEGORY": "NOT MET"}
{"MOLECULE": "COc1ccccc1C1CCN(C(=O)C2=NOC(CN3CCN(c4ccccc4OC(C)C)CC3)C2)CC1 (centres unmarked)", "SYSTEM_UNDER_TEST": "α1a-AR (Homo sapiens, UniProt P35348)", "ASSIGNED_CATEGORY": "NOT MET"}
{"MOLECULE": "COc1cc2c(cc1OC)N(C(=O)C1=NOC(CN3CCN(c4ccccc4OC(C)C)CC3)C1)CC2 (centres unmarked)", "SYSTEM_UNDER_TEST": "α1a-AR (Homo sapiens, UniProt P35348)", "ASSIGNED_CATEGORY": "MET"}
{"MOLECULE": "CC(C)Oc1ccccc1N1CCN(CC2CC(C(=O)N3CCc4ccccc43)=NO2)CC1 (centres unmarked) [Compound 10]", "SYSTEM_UNDER_TEST": "α1a-AR (Homo sapiens, UniProt P35348)", "ASSIGNED_CATEGORY": "MET"}

----------
Target: α1d-AR (Homo sapiens)
Construct: expressed in transfected cells; host or cells: COS-7 cells (African Green monkey kidney), membranes
Sequence (P25100 whole entry): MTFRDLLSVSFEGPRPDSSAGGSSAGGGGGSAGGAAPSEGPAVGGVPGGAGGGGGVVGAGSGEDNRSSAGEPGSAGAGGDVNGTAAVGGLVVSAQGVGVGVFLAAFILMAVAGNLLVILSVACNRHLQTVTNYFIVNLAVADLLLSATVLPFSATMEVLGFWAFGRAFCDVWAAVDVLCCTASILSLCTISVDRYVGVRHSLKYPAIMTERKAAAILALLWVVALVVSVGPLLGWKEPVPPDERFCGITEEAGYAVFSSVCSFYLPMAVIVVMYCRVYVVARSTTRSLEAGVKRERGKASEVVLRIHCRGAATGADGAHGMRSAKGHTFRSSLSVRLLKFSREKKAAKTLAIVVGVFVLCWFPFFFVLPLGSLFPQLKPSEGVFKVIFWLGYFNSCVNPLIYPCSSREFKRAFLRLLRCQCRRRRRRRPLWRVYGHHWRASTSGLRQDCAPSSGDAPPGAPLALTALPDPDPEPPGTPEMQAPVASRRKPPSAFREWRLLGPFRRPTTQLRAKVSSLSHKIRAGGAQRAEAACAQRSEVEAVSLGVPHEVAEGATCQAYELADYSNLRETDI
Assay: α1-Adrenergic Receptor Binding Assay, 125I-HEAT radio-ligand binding, transfected COS-7 cell membranes, α1d subtype
Conditions: individual values, COS-7 membranes, read-out: Alpha 1 Ki α1d (2) Individual Values

{"MOLECULE": "CC(C)Oc1ccccc1N1CCN(CC2CC(C(=O)N3CCC(Oc4ccccn4)CC3)=NO2)CC1 (stereo not drawn)", "SYSTEM_UNDER_TEST": "α1d-AR (Homo sapiens)", "Ki [µM]": 0.0446}
{"MOLECULE": "CC(C)Oc1ccccc1N1CCN(CC2CC(C(=O)N3CCc4ccccc43)=NO2)CC1 (single isomer, unassigned)", "SYSTEM_UNDER_TEST": "α1d-AR (Homo sapiens)", "Ki [µM]": 0.00028}
{"MOLECULE": "CC(C)Oc1ccccc1N1CCN(CC2CC(C(=O)N3CCC(Cc4ccccc4)CC3)=NO2)CC1 (stereo not drawn)", "SYSTEM_UNDER_TEST": "α1d-AR (Homo sapiens)", "Ki [µM]": 0.0065}
{"MOLECULE": "CC(C)Oc1ccccc1N1CCN(CC2CC(C(=O)N3CC(C)(C)c4cc(Br)ccc43)=NO2)CC1 (single isomer, unassigned) [Compound 42]", "SYSTEM_UNDER_TEST": "α1d-AR (Homo sapiens)", "Ki [µM]": 0.00044}
{"MOLECULE": "COc1cccc(CNc2ccc3c(c2)N(CC2=NOC(CN4CCN(c5ccccc5OC(C)C)CC4)C2)CC3)c1 (stereo not drawn)", "SYSTEM_UNDER_TEST": "α1d-AR (Homo sapiens)", "Ki [µM]": 0.022}
{"MOLECULE": "COc1ccccc1C1CCN(C(=O)C2=NOC(CN3CCN(c4ccccc4OC(C)C)CC3)C2)CC1 (stereo not drawn)", "SYSTEM_UNDER_TEST": "α1d-AR (Homo sapiens)", "Ki [µM]": 0.02}
{"MOLECULE": "CC(C)Oc1ccccc1N1CCN(CC2CC(CN3CCc4ccc(NCc5ccccc5F)cc43)=NO2)CC1 (stereo not drawn)", "SYSTEM_UNDER_TEST": "α1d-AR (Homo sapiens)", "Ki [µM]": 0.035}
{"MOLECULE": "CC(C)Oc1ccccc1N1CCN(CC2CC(C(=O)N3CCOCC3)=NO2)CC1 (stereo not drawn) [Compound 28]", "SYSTEM_UNDER_TEST": "α1d-AR (Homo sapiens)", "Ki [µM]": 0.0272}
{"MOLECULE": "CC(C)Oc1ccccc1N1CCN(CC2CC(C(=O)N3CCc4ccc(N)cc43)=NO2)CC1 (stereo not drawn)", "SYSTEM_UNDER_TEST": "α1d-AR (Homo sapiens)", "Ki [µM]": 0.0028}
{"MOLECULE": "CC(C)Oc1ccccc1N1CCN(CC2CC(C(=O)N3CCc4cc(Cl)ccc43)=NO2)CC1 (stereo not drawn)", "SYSTEM_UNDER_TEST": "α1d-AR (Homo sapiens)", "Ki [µM]": 0.0047}
{"MOLECULE": "CC(C)Oc1ccccc1N1CCN(CC2CC(C(=O)N3CCC(C(=O)c4ccc(F)cc4)CC3)=NO2)CC1 (single isomer, unassigned) [Compound 41]", "SYSTEM_UNDER_TEST": "α1d-AR (Homo sapiens)", "Ki [µM]": 0.0581}
{"MOLECULE": "CC(C)Oc1ccccc1N1CCN(CC2CC(C(=O)N3CCc4ccc(NCc5ccccc5F)cc43)=NO2)CC1 (stereo not drawn)", "SYSTEM_UNDER_TEST": "α1d-AR (Homo sapiens)", "Ki [µM]": 0.0116}
{"MOLECULE": "CC(C)Oc1ccccc1N1CCN(CC2CC(C(=O)N3CCOCC3)=NO2)CC1 (single isomer, unassigned) [Compound 45]", "SYSTEM_UNDER_TEST": "α1d-AR (Homo sapiens)", "Ki [µM]": 0.297}
{"MOLECULE": "CC(C)Oc1ccccc1N1CCN(CC2CC(CN3CCc4ccc(N)cc43)=NO2)CC1 (stereo not drawn)", "SYSTEM_UNDER_TEST": "α1d-AR (Homo sapiens)", "Ki [µM]": 0.046}
{"MOLECULE": "CC(C)Oc1ccccc1N1CCN(CC2CC(C(=O)N3CCCc4ccccc43)=NO2)CC1 (stereo not drawn)", "SYSTEM_UNDER_TEST": "α1d-AR (Homo sapiens)", "Ki [µM]": 0.011}
